pIC50: −log10 of the molar value.
quantity-kind: pIC50

Inquiry: Print PIK3CB (Human) pIC50 for CC(c1cc2ccccc2nc1-c1ccccc1)n1nc(-c2cc(O)cc(F)c2)c2c(N)ncnc21 (stereo unspecified) .
Reply text: 6.00 to 7.00

All values here come from the Kinase Knowledgebase extract (Sharma et al. 2016).
